- Tested on: 435261-313-R-J1-PDC complex spheroid viability
- run description: Anticancer human tumor 435261-313-R-J1-PDC patient-derived colon adenocarcinoma cell line growth inhibition [GQUAD]
- condition notes: second compound 0.1 µM; first compound 0.1 µM; active compounds read low
Label Yes when viability, T/C is strictly below 80%; at or above that, label No.

Q) Please let me know if COc1cc(C2c3cc4c(cc3C(OC3OC5COC(C)OC5C(O)C3O)C3COC(=O)C23)OCO4)cc(OC)c1O (stereo unspecified) + CN(C)c1ccc(Nc2c3ccc(NC(=O)CCN4CCCC4)cc3nc3cc(NC(=O)CCN4CCCC4)ccc23)cc1 shows viability, T/C below 80%.
A) No

Q) For C=CCn1c(=O)c2cnc(Nc3ccc(N4CCN(C)CC4)cc3)nc2n1-c1cccc(C(C)(C)O)n1 + CN(C)c1ccc(Nc2c3ccc(NC(=O)CCN4CCCC4)cc3nc3cc(NC(=O)CCN4CCCC4)ccc23)cc1 , is the recorded viability, T/C below the cut-off of 80%?
A) No

Q) State whether 80% exceeds viability, T/C recorded for Cc1cccc(N(C)C(=O)C2C(O)CCN2c2nc(C)cc(C(F)(F)F)c2C#N)c1 (stereo unspecified) + Cc1cnc(CNC(=O)c2c(=O)c3ccc(N4CCCN(C)CC4)nc3n3c2sc2ccccc23)cn1 .
A) Yes

Q) Criterion: viability, T/C strictly below 80%. Is it met by O=c1[nH]cc(F)c(=O)[nH]1 + Cc1[nH]c2ccc(F)cc2c1-c1nc2c3cccnc3c3ncccc3c2[nH]1 ?
A) No

Q) Is 80% strictly greater than the compound's reported viability, T/C? compound: Cc1cccc(N(C)C(=O)C2C(O)CCN2c2nc(C)cc(C(F)(F)F)c2C#N)c1 (stereo unspecified) + Cc1[nH]c2ccc(F)cc2c1-c1nc2c3cccnc3c3ncccc3c2[nH]1
A) No

Q) Here's an entry: CC1COCCN1c1cc(C2(O)CC3CCC(C2)O3)c2cnn(-c3ccn[nH]3)c2n1 (stereo unspecified) + CN(C)c1ccc(Nc2c3ccc(NC(=O)CCN4CCCC4)cc3nc3cc(NC(=O)CCN4CCCC4)ccc23)cc1 . Is its viability, T/C below 80%?
A) No

---

Listed here: items and their measured viability, T/C.
- Test system: 435261-313-R-J1-PDC complex spheroid viability
- run description: Anticancer human tumor 435261-313-R-J1-PDC cell line growth inhibition [GQUAD];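 further: spheroids exposed to the agents for seven days before readout; percent of vehicle control viability with DMSO wells as 100%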
- condition notes: second compound 3.16 µM; first compound 0.0316 µM; active compounds read low
- Source text: DNA G-quadruplex Stabilizer Agents in Combinations in Complex Spheroids A high-throughput screen of multi-cell type tumor spheroids was designed to identify active combinations of DNA G-quadruplex stabilizer agents and targeted small molecules. […] Compounds. […] If the clinical Cmax for an agent had not been determined, the highest concentration tested was 10 microM. […]
Give the quantity in %, number only.

Worked cases, viability, T/C given:
COc1cc(C2c3cc4c(cc3C(OC3OC5COC(C)OC5C(O)C3O)C3COC(=O)C23)OCO4)cc(OC)c1O (stereo not drawn) + CN(C)c1ccc(Nc2c3ccc(NC(=O)CCN4CCCC4)cc3nc3cc(NC(=O)CCN4CCCC4)ccc23)cc1 ... 62.6
CCc1c2c(nc3ccc(O)cc13)-c1cc3c(c(=O)n1C2)COC(=O)[C@]3(O)CC + CN(C)c1ccc(Nc2c3ccc(NC(=O)CCN4CCCC4)cc3nc3cc(NC(=O)CCN4CCCC4)ccc23)cc1 ... 56.2

Let's switch to this molecule now.
Q) Quick one: viability, T/C of O=c1[nH]cc(F)c(=O)[nH]1 + Cc1cnc(CNC(=O)c2c(=O)c3ccc(N4CCCN(C)CC4)nc3n3c2sc2ccccc23)cn1 ?
A) 20.3

---

- System: 435261-313-R-J1-PDC complex spheroid viability
- run description: Anticancer human tumor 435261-313-R-J1-PDC cell line growth inhibition [GQUAD];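 further: spheroids exposed to the agents for seven days before readout; percent of vehicle control viability with DMSO wells as 100%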
- condition notes: second compound 0.0316 µM; first compound 0.0316 µM; active compounds read low
- Excerpt: DNA G-quadruplex Stabilizer Agents in Combinations in Complex Spheroids A high-throughput screen of multi-cell type tumor spheroids was designed to identify active combinations of DNA G-quadruplex stabilizer agents and targeted small molecules. […] Compounds. […] If the clinical Cmax for an agent had not been determined, the highest concentration tested was 10 microM. […]
// NB: equality with 80% counts as N; only viability, T/C strictly below is Y

Previously resolved entries follow.
Cc1cccc(N(C)C(=O)C2C(O)CCN2c2nc(C)cc(C(F)(F)F)c2C#N)c1 (configuration not stated) + Cc1[nH]c2ccc(F)cc2c1-c1nc2c3cccnc3c3ncccc3c2[nH]1 ... N
COc1cccc2c1C(=O)c1c(O)c3c(c(O)c1C2=O)CC(O)(C(=O)CO)CC3OC1CC(N)C(O)C(C)O1 (configuration not stated) + Cc1cnc(CNC(=O)c2c(=O)c3ccc(N4CCCN(C)CC4)nc3n3c2sc2ccccc23)cn1 ... Y
CC[C@@]1(O)C(=O)OCc2c1cc1n(c2=O)Cc2cc3c(CN(C)C)c(O)ccc3nc2-1 + Cc1cnc(CNC(=O)c2c(=O)c3ccc(N4CCCN(C)CC4)nc3n3c2sc2ccccc23)cn1 ... Y
CCc1c2c(nc3ccc(O)cc13)-c1cc3c(c(=O)n1C2)COC(=O)[C@]3(O)CC + Cc1cnc(CNC(=O)c2c(=O)c3ccc(N4CCCN(C)CC4)nc3n3c2sc2ccccc23)cn1 ... Y
COc1ccc([C@@H](O)c2cc(-c3ncnc4cc(N5CCOCC5)ccc34)c(F)cc2Cl)nn1 + CN(C)c1ccc(Nc2c3ccc(NC(=O)CCN4CCCC4)cc3nc3cc(NC(=O)CCN4CCCC4)ccc23)cc1 ... N
Cc1[nH]c2ccccc2c1CCNCc1ccc(/C=C/C(=O)NO)cc1 + CN(C)c1ccc(Nc2c3ccc(NC(=O)CCN4CCCC4)cc3nc3cc(NC(=O)CCN4CCCC4)ccc23)cc1 ... Y
Cc1[nH]c2ccccc2c1CCNCc1ccc(/C=C/C(=O)NO)cc1 + Cc1[nH]c2ccc(F)cc2c1-c1nc2c3cccnc3c3ncccc3c2[nH]1 ... N
CCc1c2c(nc3ccc(O)cc13)-c1cc3c(c(=O)n1C2)COC(=O)[C@]3(O)CC + CN(C)c1ccc(Nc2c3ccc(NC(=O)CCN4CCCC4)cc3nc3cc(NC(=O)CCN4CCCC4)ccc23)cc1 ... Y

Q) Just wondering, is viability, T/C of CCc1c2c(nc3ccc(O)cc13)-c1cc3c(c(=O)n1C2)COC(=O)[C@]3(O)CC + Cc1[nH]c2ccc(F)cc2c1-c1nc2c3cccnc3c3ncccc3c2[nH]1 below 80%?
A) Y

Q) # strict comparison: is reported viability, T/C < 80%? input = O=c1[nH]cc(F)c(=O)[nH]1 + Cc1cnc(CNC(=O)c2c(=O)c3ccc(N4CCCN(C)CC4)nc3n3c2sc2ccccc23)cn1
A) N

Q) Is it true that viability, T/C reported for COc1cc(C2c3cc4c(cc3C(OC3OC5COC(C)OC5C(O)C3O)C3COC(=O)C23)OCO4)cc(OC)c1O (configuration not stated) + Cc1cnc(CNC(=O)c2c(=O)c3ccc(N4CCCN(C)CC4)nc3n3c2sc2ccccc23)cn1 is less than 80%?
A) Y

Q) Strictly below 80%: is that where viability, T/C of CC1COCCN1c1cc(C2(S(C)(=N)=O)CC2)nc(-c2ccnc3[nH]ccc23)n1 (configuration not stated) + CN(C)c1ccc(Nc2c3ccc(NC(=O)CCN4CCCC4)cc3nc3cc(NC(=O)CCN4CCCC4)ccc23)cc1 sits?
A) N

Q) Field: below-cutoff. Rule: recorded viability, T/C strictly less than 80%. Subject: Nc1ccn(C2OC(CO)C(O)C2(F)F)c(=O)n1 (configuration not stated) + Cc1[nH]c2ccc(F)cc2c1-c1nc2c3cccnc3c3ncccc3c2[nH]1
A) Y

Q) Here's an entry: O=c1[nH]cc(F)c(=O)[nH]1 + CN(C)c1ccc(Nc2c3ccc(NC(=O)CCN4CCCC4)cc3nc3cc(NC(=O)CCN4CCCC4)ccc23)cc1 . Is its viability, T/C below 80%?
A) N

Q) Answer whether the compound Nc1ccn(C2OC(CO)C(O)C2(F)F)c(=O)n1 (configuration not stated) + Cc1cnc(CNC(=O)c2c(=O)c3ccc(N4CCCN(C)CC4)nc3n3c2sc2ccccc23)cn1 has viability, T/C strictly less than 80%
A) N

Q) Consider CCCS(=O)(=O)Nc1ccc(F)c(C(=O)c2c[nH]c3ncc(-c4ccc(Cl)cc4)cc23)c1F + CN(C)c1ccc(Nc2c3ccc(NC(=O)CCN4CCCC4)cc3nc3cc(NC(=O)CCN4CCCC4)ccc23)cc1 . Does its viability, T/C lie strictly below 80%?
A) N

Q) Is it true that viability, T/C reported for Cc1cccc(N(C)C(=O)C2C(O)CCN2c2nc(C)cc(C(F)(F)F)c2C#N)c1 (configuration not stated) + Cc1cnc(CNC(=O)c2c(=O)c3ccc(N4CCCN(C)CC4)nc3n3c2sc2ccccc23)cn1 is less than 80%?
A) Y

Q) Answer whether the compound CC1COCCN1c1cc(-c2ccnn2C)c2ccnc(-c3ccn[nH]3)c2n1 (configuration not stated) + Cc1cnc(CNC(=O)c2c(=O)c3ccc(N4CCCN(C)CC4)nc3n3c2sc2ccccc23)cn1 has viability, T/C strictly less than 80%
A) Y

Q) Does this compound meet the criterion viability, T/C < 80%? C=CC(=O)N1CCN(c2nc(=O)n(-c3c(C)ccnc3C(C)C)c3nc(-c4c(O)cccc4F)c(F)cc23)C(C)C1 (configuration not stated) + Cc1[nH]c2ccc(F)cc2c1-c1nc2c3cccnc3c3ncccc3c2[nH]1
A) N

Q) Please let me know if O=C(c1cc(Cc2n[nH]c(=O)c3ccccc23)ccc1F)N1CCN(C(=O)C2CC2)CC1 + Cc1cnc(CNC(=O)c2c(=O)c3ccc(N4CCCN(C)CC4)nc3n3c2sc2ccccc23)cn1 shows viability, T/C below 80%.
A) Y

Q) Input CC1COCCN1c1cc(C2(S(C)(=N)=O)CC2)nc(-c2ccnc3[nH]ccc23)n1 (configuration not stated) + Cc1cnc(CNC(=O)c2c(=O)c3ccc(N4CCCN(C)CC4)nc3n3c2sc2ccccc23)cn1 ; condition: viability, T/C strictly below 80%. Does it hold?
A) Y
